Documented specific radioactivity incorporation, [^3H]-hypoxanthine across a set of molecules
Tested on: human malaria parasites
assayComment: [3H]-hypoxanthine incorporation (de novo nucleic acid synthesis) in infected human red blood cells, Example 2
Format: cell-based
measurementSetup: 100 μM, 25 hours; value at 0.1 μM set to 100%
Write the value in % as a bare number.

C=C(NC(C)=O)C(=O)CCC(=O)O; 1.6
NCC(=O)CCC(=O)O; 101.2
CC(=O)CC(=O)CCC(=O)O; 90.9

Field: next molecule
[ask] Look at this molecule and give its reported specific radioactivity incorporation, [^3H]-hypoxanthine. O=C(O)CCC(=O)CCC(=O)CCC(=O)O
[reply] 102.1

* * *

Tested on: human malaria parasites
assayComment: [3H]-hypoxanthine incorporation (de novo nucleic acid synthesis) in infected human red blood cells, Example 2
Type: cell-based
measurementSetup: 50 μM, 25 hours; value at 0.1 μM set to 100%
reportedProperty: specific radioactivity incorporation, [^3H]-hypoxanthine
The reply should read as a number followed by its unit.

// below: answered molecules
C=C(NC(C)=O)C(=O)CCC(=O)O; 2.8%
CC(=O)CC(=O)CCC(=O)O; 99.8%
NCC(=O)CCC(=O)O; 97.3%

[ask] // lookup specific radioactivity incorporation, [^3H]-hypoxanthine | system=human malaria parasites | key= O=C(O)CCC(=O)CCC(=O)CCC(=O)O
[reply] 108%
